tgt: T1, µ opioid receptor (bovine caudate nucleus synaptic membrane fraction) (bovine, UniProt P79350 1-401)
T1 construct: whole, on cells; Native receptor in brain membranes, not on intact cells; The tissue may hold other opioid receptors; also called µ-receptor; µ opioid receptors
test.name: displacement of 1 nM [3H]DAMGO, bovine caudate synaptic membranes; column Time 0 hours; mean ± SD
Where no end group is shown, it is not given here.
For each entry below, report its IC50 value.
Provide the reading as a plain figure in nM.

Query :: Using the record for YGGFLKEKEKE-OH [Leu-Enkephalin-(Lys-Glu)3-OH] , report its IC50.
Result :: 450

Query :: // query IC50 value for entry H-YGGFLKKKKKK-OH (also called H-Leu-enkephalin-Lys6) [Leu-Enkephalin-(Lys)6-OH (H-Tyr-Gly-Gly-Phe-Leu-Lys6-OH)]
Result :: 17
